In this section we review reported MIC Enterococcus faecalis (GC 2691) values for a set of molecules.
# Test system: Enterococcus sp.
# experimental_details: In vitro antibacterial evaluation: minimum inhibitory concentration (MIC), broth dilution method
# Format: cell-based
# assay_context: strain GC 2691
API: value field is a number in µg/mL; no unit string.

Below, 3 molecules whose answers are already recorded.
molecule	MIC Enterococcus faecalis (GC 2691), µg/mL
CCCCCCN=C1NCC(C(O)C2NC(=O)C(C(O)C3CNC(=N)N3)NC(=O)C(Cc3ccc(OC4OC(CO)C(OC5OC6COC7(OC6C(O)C5O)C5CC6CC(C5)CC7C6)C(O)C4O)cc3)NC(=O)C(C(C)c3ccccc3)NC(=O)CNC(=O)C(CO)NC2=O)N1C1OC(CO)C(O)C(O)C1O (centres unmarked)	8
CC(c1ccccc1)C1NC(=O)CNC(=O)C(CO)NC(=O)C(C(O)C2CNC(=N)N2C2OC(CO)C(O)C(O)C2O)NC(=O)C(C(O)C2CNC(=N)N2)NC(=O)C(Cc2ccc(OC3OC(CO)C(OC4OC5COC(c6ccc(C(C)(C)C)cc6)OC5C(O)C4O)C(O)C3O)cc2)NC1=O (centres unmarked)	0.5
COc1cccc(C2OC3C(OC4C(CO)OC(Oc5ccc(CC6NC(=O)C(C(C)c7ccccc7)NC(=O)CNC(=O)C(CO)NC(=O)C(C(O)C7CNC(=N)N7C7OC(CO)C(O)C(O)C7O)NC(=O)C(C(O)C7CNC(=N)N7)NC6=O)cc5)C(O)C4O)OC(CO)C(O)C3O2)c1 (single isomer, unassigned) [Example 137b]	32

Enquiry: Consider the molecule shown here: CC(c1ccccc1)C1NC(=O)CNC(=O)C(CO)NC(=O)C(C(O)C2CN(Cc3ccc(C(C)(C)C)cc3)C(=N)N2C2OC(CO)C(O)C(O)C2O)NC(=O)C(C(O)C2CNC(=N)N2)NC(=O)C(Cc2ccc(OC3OC(CO)C(OC4OC5COC6(OC5C(O)C4O)C4CC5CC(C4)CC6C5)C(O)C3O)cc2)NC1=O (centres unmarked) What is its recorded MIC Enterococcus faecalis (GC 2691)?
Return: 16

----------
# Tested on: Enterococcus sp.
# experimental_details: In vitro antibacterial evaluation: minimum inhibitory concentration (MIC), broth dilution method
# Format: cell-based
# assay_context: broth dilution, inoculum 5×10^5 CFU/mL, 18 hours at 35° C.
reported_endpoint: MIC Enterococcus faecalis (GC 2242) (mg/L)
API: value field is a number in mg/L; no unit string.

Below, 5 compounds whose answers are already recorded.
compound	test_target	observed_measurement
CC(c1ccccc1)C1NC(=O)CNC(=O)C(CO)NC(=O)C(C(O)C2CNC(=N)N2C2OC(CO)C(O)C(O)C2O)NC(=O)C(C(O)C2CNC(=N)N2)NC(=O)C(Cc2ccc(OC3OC(CO)C(OC4OC5COC(c6ccc(-c7ccc(Cl)cc7)cc6)OC5C(O)C4O)C(O)C3O)cc2)NC1=O (stereo not shown) [Example 178]	Enterococcus sp.	2
COc1ccc(COCC2OC(OC3C(CO)OC(Oc4ccc(CC5NC(=O)C(C(C)c6ccccc6)NC(=O)CNC(=O)C(CO)NC(=O)C(C(O)C6CNC(=N)N6C6OC(CO)C(O)C(O)C6O)NC(=O)C(C(O)C6CNC(=N)N6)NC5=O)cc4)C(O)C3O)C(O)C(O)C2O)cc1F (stereo not shown) [Example 237]	Enterococcus sp.	16
CC(C1CCCCC1)C1NC(=O)CNC(=O)C(CO)NC(=O)C(C(O)C2CNC(=N)N2C2OC(CO)C(O)C(O)C2O)NC(=O)C(C(O)C2CNC(=N)N2)NC(=O)C(Cc2ccc(OC3OC(CO)C(OC4OC5COC6(OC5C(O)C4O)C4CC5CC(C4)CC6C5)C(O)C3O)cc2)NC1=O (stereo not shown) [Example 221]	Enterococcus sp.	2
COc1ccc(Oc2cccc(C3OCC4OC(OC5C(CO)OC(Oc6ccc(CC7NC(=O)C(C(C)c8ccccc8)NC(=O)CNC(=O)C(CO)NC(=O)C(C(O)C8CNC(=N)N8C8OC(CO)C(O)C(O)C8O)NC(=O)C(C(O)C8CNC(=N)N8)NC7=O)cc6)C(O)C5O)C(O)C(O)C4O3)c2)cc1 (stereo not shown) [Example 180]	Enterococcus sp.	4
N=C1NCC(C(O)C2NC(=O)C(Cc3ccc(OC4OC(CO)C(OC5OC6COC7(OC6C(O)C5O)C5CC6CC(C5)CC7C6)C(O)C4O)cc3)NC(=O)C(Cc3ccccc3)NC(=O)CNC(=O)C(CO)NC(=O)C(C(O)C3CNC(=N)N3C3OC(CO)C(O)C(O)C3O)NC2=O)N1 (stereo not shown) [Example 220]	Enterococcus sp.	1

Enquiry: Consider the compound shown here: CC(c1ccccc1)C1NC(=O)CNC(=O)C(CO)NC(=O)C(C(O)C2CNC(=N)N2C2OC(CO)C(O)C(O)C2O)NC(=O)C(C(O)C2CNC(=N)N2)NC(=O)C(Cc2ccc(OC3OC(CO)C(OC4OC(CO)C(OCC=C(c5ccccc5)c5ccccc5)C(O)C4O)C(O)C3O)cc2)NC1=O (stereo not shown) [Example 241a] What is its recorded MIC Enterococcus faecalis (GC 2242)?
Return: 4

Enquiry: Do the same for COc1ccc(COCC2OC(OC3C(CO)OC(Oc4ccc(CC5NC(=O)C(C(C)c6ccccc6)NC(=O)CNC(=O)C(CO)NC(=O)C(C(O)C6CNC(=N)N6C6OC(CO)C(O)C(O)C6O)NC(=O)C(C(O)C6CNC(=N)N6)NC5=O)cc4)C(O)C3O)C(O)C(O)C2O)cc1OCc1ccccc1 (stereo not shown) [Example 239] please
Return: 4
